Assay: folding stability dG unfold (combined trypsin and chymotrypsin); higher = more stable
RECORDED ENDPOINT: folding stability dG unfold (kcal/mol)
Give the quantity in kcal/mol, number only.

Example entries and their recorded answers appear below.
In [3]: df
Out[3]:
                             sequence_chain  observed_result
0  SAGGLNIKFEILEVYPSPNGMRMIIVRMTIEYPVPVYRRDPNGEWRPMPPGQEPVTIEIDFYIMVTPSAGGS [r16_693_TrROS]             4.76
1  SAGGEKIKEALEKVPGLEIVKVEKKDGKVYIHIKAKSEEQRKKAAEALKKLPGIKEVKIEVIPEEELSAGGS [r16_671_TrROS_Hall]             3.03

Quote folding stability dG unfold reported for SAGGSAGGSAMLENARPFPIDLPTKYRLRIVLPDGRVLELEYDPKSGVPRLRVVPVEEALKRSAGGSAGGSA [r18_247_TrMRF] please.
1.46

====

Assay: folding stability dG unfold (combined trypsin and chymotrypsin); higher = more stable
RECORDED ENDPOINT: folding stability dG unfold

Example entries and their recorded answers appear below.
                             sequence_chain  observed_result
0  SAGGSAGGSAMKITINVSPDEPGVTIEEAKKRLAPHPVEKVTQTPLPSNSLVVTVDVSPEASAGGSAGGSAG [r3_335_JUSTAS]    < -1 kcal/mol
1  SAGGSAMVIEVEEEALSEEEAEEIKEEKLKEAKEKLPGEEPVELDIKVTVTVKEPEEKPYKKNILKSAGGSA [r15_663_JUSTAS]    < -1 kcal/mol

In the following, a different sequence is considered.
Quote folding stability dG unfold reported for SAGGITLEELRGMPPEQLADWLVQEAQEQNKKEGNPNRPVTVEFEYGDQPLKIEITPNGKIEKIELDSAGGS [r16_431_TrROS] please.
< -1 kcal/mol

====

Experiment: folding stability dG unfold (combined trypsin and chymotrypsin); higher = more stable
RECORDED ENDPOINT: folding stability dG unfold (kcal/mol)
Give the quantity in kcal/mol, number only.

Example entries and their recorded answers appear below.
>>> df
                             sequence_chain  unit_string  observed_result
0  SAGGSAPVIVKEASLEEIKELKKKGVKKIILVEKNPEIAEKIKKEFEKEDDIPIETVSEEEAKKLKSAGGSA [r15_243_TrMRF]     kcal/mol           -0.718
1  SMVTVERPESTKTIDAPPSATVEFDPATGTLRVYSPDGTATTVPLSPTWSIQPSDNSVTVTAPPASPAAPSA [r9_653_JUSTAS]     kcal/mol            0.421

In the following, a different sequence is considered.
Quote folding stability dG unfold reported for SAGKFKITSIKPLYVTTPADAPPVKKPYLVIELDAEDPEKARELAEKLTGAPVLVVEDPETGTATIVIDSAG [r5_907_TrMRF] please.
-0.357

====

Reported folding stability dG unfold values are given for each entry in this list.
Experiment: folding stability dG unfold (combined trypsin and chymotrypsin); higher = more stable
Give the quantity in kcal/mol, number only.

Quote folding stability dG unfold reported for SAGGSAGGSAGGSLELTFLLEDGTLAKVRIELNEDGELSISVELFELPAPEPVEVRFYPESAGGSAGGSAGG [r7_79_TrROS_Hall] please.
2.42
